# Test system: CMK;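 further: growth inhibition of CMK cells, read out as cell viability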
# Assay: cells
# Type: functional, cell-based
# Condition summary: Homo sapiens
# Description: SANGER: Inhibition of human CMK cell growth in a cell viability assay.
Test readout: IC50 (nM)
// note: answer is a bare numeric in nM

Cc1cc([C@@H](C)Nc2ccccc2C(=O)O)c2nc(N3CCOCC3)cc(=O)n2c1 | 4570
CCc1nc(N)nc(N)c1-c1ccc(Cl)cc1 | 2460

Task item: Which value of IC50 has been reported for COc1cc([C@@H]2c3cc4c(cc3[C@@H](O[C@@H]3O[C@@H]5CO[C@@H](C)O[C@H]5[C@H](O)[C@H]3O)[C@H]3COC(=O)[C@H]23)OCO4)cc(OC)c1O [ETOPOSIDE] in the records?
Reply: 2680

----------
# Test system: Hs-578T
# Assay: cells
# Type: functional, cell-based, Homo sapiens
# Condition summary: Homo sapiens, Hs-578T
# Description: SANGER: Inhibition of human Hs-578-T cell growth in a cell viability assay.
Test readout: IC50

Some compounds with known IC50 results, for comparison:
COc1cc(F)c(F)c(Nc2ccc(I)cc2F)c1NS(=O)(=O)C1(CC(O)CO)CC1 (configuration not stated) | 1.76 µM
COC(=O)CNC(=O)C(=O)OC | 3120 µM
CN(C)C/C=C/C(=O)Nc1cc2c(Nc3ccc(F)c(Cl)c3)ncnc2cc1O[C@H]1CCOC1 | > 0.5 µM
CN(Cc1cnc2nc(N)nc(N)c2n1)c1ccc(C(=O)N[C@@H](CCC(=O)O)C(=O)O)cc1 [METHOTREXATE] | > 0.2 µM
O=C(c1cc(Cc2n[nH]c(=O)c3ccccc23)ccc1F)N1CCN(C(=O)C2CC2)CC1 | > 5 µM
Cc1ccc(Nc2nccc(N(C)c3ccc4c(C)n(C)nc4c3)n2)cc1S(N)(=O)=O | > 8 µM

Please find the next compound below.
Task item: Which value of IC50 has been reported for `Cn1cc(C2=C(c3ccc(Cl)cc3Cl)C(=O)NC2=O)c2ccccc21` in the records?
Reply: > 10 µM

----------
# System: RXF 393;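 further: growth inhibition of human RXF 393 cells, read out with a cell viability assay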
# Assay: cells
# Format: functional, cell-based
# Condition summary: Homo sapiens
# Description: SANGER: Inhibition of human RXF393 cell growth in a cell viability assay.
IC50 overview
// note: answer is a bare numeric in µM

CN1CCN(CCOc2cc(OC3CCOCC3)c3c(Nc4c(Cl)ccc5c4OCO5)ncnc3c2)CC1 | 1.24

Task item: Lab note: need IC50 for `CCC(=O)N1CCN(c2ccc(-n3c(=O)ccc4cnc5ccc(-c6cnc7ccccc7c6)cc5c43)cc2C(F)(F)F)CC1` on RXF 393, anyone have it?
Reply: 0.0946

Task item: Lab note: need IC50 for `C=CCNC1=C2C[C@@H](C)C[C@H](OC)[C@H](O)[C@@H](C)/C=C(\C)[C@H](OC(N)=O)[C@@H](OC)/C=C\C=C(/C)C(=O)NC(=CC1=O)C2=O` on RXF 393, anyone have it?
Reply: 0.12

Task item: Lab note: need IC50 for `COC(=O)CNC(=O)C(=O)OC` on RXF 393, anyone have it?
Reply: 1260

----------
# System: ES7
# Assay: cells
# Format: functional, cell-based, Homo sapiens
# Condition summary: Homo sapiens, ES7
# Description: SANGER: Inhibition of human ES7 cell growth in a cell viability assay.
Test readout: IC50

COC(=O)CNC(=O)C(=O)OC | 478 µM
Cn1cncc1[C@@](N)(c1ccc(Cl)cc1)c1ccc2c(c1)c(-c1cccc(Cl)c1)cc(=O)n2C | 1.47 µM
CN(c1ncccc1CNc1nc(Nc2ccc3c(c2)CC(=O)N3)ncc1C(F)(F)F)S(C)(=O)=O | > 2.56 µM
CO[C@H]1C[C@@H]2CC[C@@H](C)[C@@](O)(O2)C(=O)C(=O)N2CCCC[C@H]2C(=O)O[C@H]([C@H](C)C[C@@H]2CC[C@@H](O)[C@H](OC)C2)CC(=O)[C@H](C)/C=C(\C)[C@@H](O)[C@@H](OC)C(=O)[C@H](C)C[C@H](C)/C=C/C=C/C=C/1C | > 0.1 µM
Cc1ccc(Nc2nccc(N(C)c3ccc4c(C)n(C)nc4c3)n2)cc1S(N)(=O)=O | > 8 µM
CCc1nc(N)nc(N)c1-c1ccc(Cl)cc1 | 14.8 µM
Cn1cc(C2=C(c3ccc(Cl)cc3Cl)C(=O)NC2=O)c2ccccc21 | > 10 µM
CN(C)C/C=C/C(=O)Nc1cc2c(Nc3ccc(F)c(Cl)c3)ncnc2cc1O[C@H]1CCOC1 | > 0.5 µM

Please find the next compound below.
Task item: Which value of IC50 has been reported for `C=CCc1cccc(/C=N/NC(=O)CN2CCN(Cc3ccccc3)CC2)c1O` in the records?
Reply: > 2.56 µM
